Sourced from paper PMC9532399

Biological target: T1, mouse TAPL ΔTMD0 Y405A mutant (mouse, UniProt Q9JJ59 143-762, Y405A)
T1 construct: mouse TAPL (ABCB9) lacking the N-terminal 142 residues (TMD0), with Y405A; source: High Five (Hi5) insect cells, baculovirus; DM-purified; not shown: eGFP, C-terminal, cleaved; His10, C-terminal, cleaved
T1 sequence (looked up): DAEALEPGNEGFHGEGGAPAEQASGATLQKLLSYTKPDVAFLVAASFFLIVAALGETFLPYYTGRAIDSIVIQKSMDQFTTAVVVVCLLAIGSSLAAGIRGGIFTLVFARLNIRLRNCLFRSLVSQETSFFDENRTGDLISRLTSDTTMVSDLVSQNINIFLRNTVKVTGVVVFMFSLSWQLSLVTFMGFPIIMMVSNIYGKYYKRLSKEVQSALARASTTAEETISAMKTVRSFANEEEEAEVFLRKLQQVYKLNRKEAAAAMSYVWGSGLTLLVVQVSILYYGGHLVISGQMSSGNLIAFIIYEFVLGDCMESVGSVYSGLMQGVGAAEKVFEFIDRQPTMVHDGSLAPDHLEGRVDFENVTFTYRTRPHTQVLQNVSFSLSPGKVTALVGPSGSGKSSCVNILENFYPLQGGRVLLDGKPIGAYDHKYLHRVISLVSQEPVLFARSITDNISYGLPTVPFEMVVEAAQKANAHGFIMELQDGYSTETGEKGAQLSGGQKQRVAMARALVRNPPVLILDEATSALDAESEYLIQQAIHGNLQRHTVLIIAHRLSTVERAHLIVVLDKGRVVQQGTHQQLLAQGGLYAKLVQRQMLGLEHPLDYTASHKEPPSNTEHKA
Experiment: MST; 0.2 μM Cy5-labeled peptide with serial 2-fold dilutions of DM-purified protein, 10 min at RT; Monolith NT.115 pico
Details: both partners purified
No end group written: not given here.
measurement type: Kd (µM)
# number only, unit µM dropped from output

Query block: Provide only the value of recorded Kd for RRYQNSTC(Cy5)L (synthetic 9-mer peptide with a single cysteine for labeling; also called Cy5-labeled peptide; source: synthetic peptide (ANYGEN Co., Ltd.), labeled with Cy5, desalted) [Cy5-labeled 9-mer peptide RRYQNSTC(Cy-5)L]
Result block: 3.8
